Source of measurements: paper PMC10053770

Assay: Single-dose intravenous pharmacokinetics in dogs
Type: in vivo, dog
Details: female; Beagle dog, F, n=5, 75 mg/kg single IV; plasma LC/MS/MS, non-compartmental; mean (SD)
measurement.kind: C0 (µg/mL)
Answers are plain numbers, in µg/mL.

q: Indicate the recorded C0 value for this molecule: CC(=O)N[C@H]1CSSC[C@@H](C(N)=O)NC(=O)[C@H](CC(=O)O)NC(=O)[C@@H]2CCCN2C(=O)CNC(=O)[C@H](CCCCN)NC(=O)[C@H](CC(=O)O)NC(=O)CNC(=O)[C@H](CCCNC(=N)N)NC1=O
a: 476

----------
Experiment: Single-dose intravenous pharmacokinetics in dogs
Format: in vivo, dog
Details: Beagle, dog, plasma; dogs, single intravenous dose; read-out: average half-life
measurement.kind: half-life

q: Indicate the recorded half-life value for this molecule: CC(=O)N[C@H]1CSSC[C@@H](C(N)=O)NC(=O)[C@H](CC(=O)O)NC(=O)[C@@H]2CCCN2C(=O)CNC(=O)[C@H](CCCCN)NC(=O)[C@H](CC(=O)O)NC(=O)CNC(=O)[C@H](CCCNC(=N)N)NC1=O [CEND-1]
a: ~40 min
